- System: 422866-222-R5-J1-PDC complex spheroids viability
- ASSAY_EXPLANATION: Anticancer human tumor 422866-222-R5-J1-PDC patient-derived pancreatic adenocarcinoma cell line growth inhibition [RAS]
- STUDY_CONDITIONS: second compound 0.0949 µM; first compound 1 µM; hits give low values
- From the text: RAS pathway inhibitors in Combinations in Complex Spheroids A high-throughput screen of multi-cell type tumor spheroids was designed to identify active combinations of RAS pathway inhibitors and targeted small molecules. Complex spheroids include a stromal component modeled by human endothelial cells (HUVEC) and fibroblasts modeled by human mesenchymal stem cells (MSCs). […] Compounds. […] If the clinical Cmax for an agent had not been determined, the highest concentration tested was 10 microM. […]
PROPERTY_NAME: viability, T/C (%)
Express it in %; write the number only.

Lab note: CC(Nc1ccc2c(c1)OCCn1cc(N3C(=O)OCC3C(F)F)nc1-2)C(N)=O (configuration not stated) + CCn1c(-c2cccnc2C(C)OC)c2c3cc(ccc31)N1CCOC(CC(NC(=O)C(C(C)C)N(C)C(=O)C3(F)CCN(C(=O)C#CC(C)(C)N(C)C)CC3)C(=O)N3CCCC(N3)C(=O)OCC(C)(C)C2)C1 gave viability, T/C of 5.71

Lab note: CC(=O)OC12COC1CC(O)C1(C)C(=O)C(O)C3=C(C)C(OC(=O)C(O)C(NC(=O)OC(C)(C)C)c4ccccc4)CC(O)(C(OC(=O)c4ccccc4)C21)C3(C)C (configuration not stated) + CCn1c(-c2cc(N3CCN(C)CC3)cnc2C(C)OC)c2c3cc(ccc31)-c1csc(n1)CC(NC(=O)C1CC1C)C(=O)N1CCCC(N1)C(=O)OCC(C)(C)C2 gave viability, T/C of 17.8

---

- Tested on: 422866-222-R5-J1-PDC complex spheroids viability
- ASSAY_EXPLANATION: Anticancer human tumor 422866-222-R5-J1-PDC cell line growth inhibition [RAS]; active = viability on the fitted dose curve at most 10% of control; inactive = the rest;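 further: spheroids exposed to compounds for 7 days; 100% = DMSO vehicle control viability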
- STUDY_CONDITIONS: second compound 0.03 µM; first compound 1 µM
Your response should consist of one outcome taken from active, inactive

Tell me the recorded outcome of this test for Nc1ccn(C2OC(CO)C(O)C2(F)F)c(=O)n1 (centres undefined) + CCn1c(-c2cccnc2C(C)OC)c2c3cc(ccc31)N1CCOC(CC(NC(=O)C(C(C)C)N(C)C(=O)C3(F)CCN(C(=O)C#CC(C)(C)N(C)C)CC3)C(=O)N3CCCC(N3)C(=O)OCC(C)(C)C2)C1 .
inactive

Tell me the recorded outcome of this test for CC(C)NCC(C(=O)N1CCN(c2ncnc3c2C(C)CC3O)CC1)c1ccc(Cl)cc1 (centres undefined) + CCn1c(-c2cc(N3CCN(C)CC3)cnc2C(C)OC)c2c3cc(ccc31)-c1csc(n1)CC(NC(=O)C1CC1C)C(=O)N1CCCC(N1)C(=O)OCC(C)(C)C2 .
inactive

Tell me the recorded outcome of this test for CC(Nc1ccc2c(c1)OCCn1cc(N3C(=O)OCC3C(F)F)nc1-2)C(N)=O (centres undefined) + CCn1c(-c2cccnc2C(C)OC)c2c3cc(ccc31)N1CCOC(CC(NC(=O)C(C(C)C)N(C)C(=O)C3(F)CCN(C(=O)C#CC(C)(C)N(C)C)CC3)C(=O)N3CCCC(N3)C(=O)OCC(C)(C)C2)C1 .
active

Tell me the recorded outcome of this test for C=CC(=O)N1CCN(c2nc(OCC3CCCN3C)nc3c(F)c(-c4nc(N)cc(C)c4C(F)(F)F)c(Cl)cc23)C(C)C1 (centres undefined) + CCn1c(-c2cccnc2C(C)OC)c2c3cc(ccc31)N1CCOC(CC(NC(=O)C(C(C)C)N(C)C(=O)C3(F)CCN(C(=O)C#CC(C)(C)N(C)C)CC3)C(=O)N3CCCC(N3)C(=O)OCC(C)(C)C2)C1 .
inactive

Tell me the recorded outcome of this test for NC1c2ccccc2OC12CCN(c1cnc3c(N4CCCc5ncccc54)n[nH]c3n1)CC2 (centres undefined) + CCn1c(-c2cccnc2C(C)OC)c2c3cc(ccc31)N1CCOC(CC(NC(=O)C(C(C)C)N(C)C(=O)C3(F)CCN(C(=O)C#CC(C)(C)N(C)C)CC3)C(=O)N3CCCC(N3)C(=O)OCC(C)(C)C2)C1 .
inactive

Tell me the recorded outcome of this test for CCN1CCN(Cc2ccc(Nc3ncc(F)c(-c4cc(F)c5nc(C)n(C(C)C)c5c4)n3)nc2)CC1 + CCn1c(-c2cc(N3CCN(C)CC3)cnc2C(C)OC)c2c3cc(ccc31)-c1csc(n1)CC(NC(=O)C1CC1C)C(=O)N1CCCC(N1)C(=O)OCC(C)(C)C2 .
inactive

Tell me the recorded outcome of this test for NC1c2ccccc2OC12CCN(c1cnc3c(N4CCCc5ncccc54)n[nH]c3n1)CC2 (centres undefined) + CCn1c(-c2cc(N3CCN(C)CC3)cnc2C(C)OC)c2c3cc(ccc31)-c1csc(n1)CC(NC(=O)C1CC1C)C(=O)N1CCCC(N1)C(=O)OCC(C)(C)C2 .
inactive

Tell me the recorded outcome of this test for CC(=O)OC12COC1CC(O)C1(C)C(=O)C(O)C3=C(C)C(OC(=O)C(O)C(NC(=O)OC(C)(C)C)c4ccccc4)CC(O)(C(OC(=O)c4ccccc4)C21)C3(C)C (centres undefined) + CCn1c(-c2cc(N3CCN(C)CC3)cnc2C(C)OC)c2c3cc(ccc31)-c1csc(n1)CC(NC(=O)C1CC1C)C(=O)N1CCCC(N1)C(=O)OCC(C)(C)C2 .
inactive

Tell me the recorded outcome of this test for C[C@@H](NC(=O)c1ncnc(N)c1Cl)c1ncc(C(=O)Nc2cc(C(F)(F)F)c(Cl)cn2)s1 + CCn1c(-c2cccnc2C(C)OC)c2c3cc(ccc31)N1CCOC(CC(NC(=O)C(C(C)C)N(C)C(=O)C3(F)CCN(C(=O)C#CC(C)(C)N(C)C)CC3)C(=O)N3CCCC(N3)C(=O)OCC(C)(C)C2)C1 .
inactive
